Experimental system: PI4K2A kinase (Homo sapiens, UniProt Q9BTU6)
Sequence (Q9BTU6 whole entry): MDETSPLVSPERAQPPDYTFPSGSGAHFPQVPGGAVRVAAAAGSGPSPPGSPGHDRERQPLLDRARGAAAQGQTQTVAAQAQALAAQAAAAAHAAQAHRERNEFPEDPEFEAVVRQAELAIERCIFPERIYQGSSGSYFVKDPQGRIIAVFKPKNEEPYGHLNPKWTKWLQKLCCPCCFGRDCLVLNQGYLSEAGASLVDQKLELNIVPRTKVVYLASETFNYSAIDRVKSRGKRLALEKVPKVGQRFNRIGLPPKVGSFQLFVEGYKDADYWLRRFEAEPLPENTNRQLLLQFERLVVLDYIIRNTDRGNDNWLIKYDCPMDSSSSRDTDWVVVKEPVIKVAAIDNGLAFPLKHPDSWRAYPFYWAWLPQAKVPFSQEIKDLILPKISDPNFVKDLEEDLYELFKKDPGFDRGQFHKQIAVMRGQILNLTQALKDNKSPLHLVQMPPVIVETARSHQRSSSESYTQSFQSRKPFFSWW
Experiment summary: ADP-Glo kinase assay, high-throughput enzymatic screening (Reaction Biology)

[
  {
    "Smiles": "O=C(N/N=C\\c1c(O)ccc2ccccc12)c1cccc2cc[nH]c12",
    "Unit spec": "nM",
    "IC50": 2500
  }
]

Values from patent US12465610B2
